Provide the recorded binding affinity ratio (IC50 of standard peptide / IC50 of test peptide) for the entries that follow.
target: HLA-A*1101 (human)
Lab note: write the figure by itself, no unit.

Give binding affinity ratio (IC50 of standard peptide / IC50 of test peptide) for GVSFSELVR (modifications not checked) [HPV16 E1 peptide … (position 216, 9 amino acids)]
0.018

Give binding affinity ratio (IC50 of standard peptide / IC50 of test peptide) for ALFTAQEAK (modifications not checked) [HPV16 E1 peptide … (position 69, 9 amino acids)]
0.4

Give binding affinity ratio (IC50 of standard peptide / IC50 of test peptide) for ATMCRHYKR (modifications not checked) [HPV16 E1 peptide … (position 406, 9 amino acids)]
1.5

Give binding affinity ratio (IC50 of standard peptide / IC50 of test peptide) for FMSFLTALK (modifications not checked) [HPV16 E1 peptide … (position 453, 9 amino acids)]
0.21
